// GI50 lookup, one value per entry
Test system: MOLT-4
Procedure summary: NCI tumour cell line growth inhibition, 48 h
Activity calls are given as the source filed them. No stated cut-off is given here; in the data, active = GI50 up to about 1.1 µM and inactive = higher.

CC(=O)c1ccc(NCc2cc(O)ccc2O)cc1
3.85 µM (inactive)

Name the recorded GI50 of the item `CCc1n[nH]c(=O)n1/N=C/c1ccccc1O` in your answer.
> 100 µM (inactive)

Name the recorded GI50 of the item `O=C(Nc1nc2ccccc2s1)c1cc([N+](=O)[O-])ccc1Cl` in your answer.
2.81 µM (inactive)

---

Tested on: HCT-116
Procedure summary: NCI tumour cell line growth inhibition, 48 h
The source made the active and inactive calls. No stated cut-off is given here; in the data, active = GI50 up to about 1.1 µM and inactive = higher.
# valid calls are yes for active, no for inactive; nothing else

For orientation, consider the following solved cases.
O=C1Nc2c(Cl)cc(Cl)cc2/C1=N/N=C/c1ccccc1O
no
CN(C(=O)C1(C(=O)C=[N+]=[N-])CC1)c1ccccc1
no
CCCCCCCSCC(O)COC(c1ccccc1)(c1ccccc1)c1ccccc1 (stereo unspecified)
no
CCOC(=O)c1cn(CC)c2ccc3ccsc3c2c1=O
no
O=C1NC(c2ccccc2)N=C2Oc3ccccc3C=C12 (stereo unspecified)
yes
CCOC(=O)c1nc(SC)sc1NC(=O)c1ccc(OC)cc1
no
CC1=NN(c2ccc(S(=O)(=O)O)cc2)C2(C1)SCC(=O)N2c1nc2ccccc2s1 (stereo unspecified)
no
NC(=O)c1cc2cc(Cl)cc(Cl)c2o/c1=N\c1ccc(F)cc1
no
COC(=O)c1cc(Cl)ccc1NC(=O)c1ccc([N+](=O)[O-])cc1
no
CCN(/C=C1/C(=O)C(c2ccccc2)N(c2ccccc2)C1=O)CC (stereo unspecified)
no

Could you please tell me the result logged for CCOC(=O)C(Cc1ccc(OC(=O)c2ccc(OC)cc2OC)cc1)NC(=O)C(F)(F)F (stereo unspecified) in this assay?
no

Could you please tell me the result logged for `CN1CCN(C)C1c1cccc(C2N(C)CCN2C)c1` in this assay?
no

Could you please tell me the result logged for COc1ccc2nc(NC(=O)C(=O)C(C#N)c3ccc(CC#N)cc3)sc2c1 (stereo unspecified) in this assay?
no
